ASSAY_DETAILS: recombinant barcode read abundance after kanamycin selection (control-corrected) (log10(CPM+1)); higher = more efficient recombination; sequences stand for … in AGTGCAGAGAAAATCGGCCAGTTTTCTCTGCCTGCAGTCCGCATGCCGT…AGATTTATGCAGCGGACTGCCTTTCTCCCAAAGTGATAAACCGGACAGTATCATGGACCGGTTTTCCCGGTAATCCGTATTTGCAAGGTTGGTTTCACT; site = the 11-nt target;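 further: IS621 recombinase and bridge RNA in Escherichia coli cells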
recombinant barcode read abundance (log10) class ranges: lowest (below 0.08), middle (0.08 to below 0.2), highest (0.2 or more)

As a guide, the following entries are already answered.
CAAACACCTTGGGTTCTAACCTGTTGCTT (site CAAACACCTAA); highest
TCTGTATCTTGGGTTCTAACCTGTTGCCT (site GCTGTATCTAG); middle
CTACGTCCTTGGGTTCTAACCTGTTGCTA (site CTACGTCCTAA); lowest
ACGACTACTTGGGTTCTAACCTGTTGCCT (site ACGACTGCTAG); middle

# input GET /class?item= AATGGGCCTTGGGTTCTAACCTGTTGCGT (site AATGGGCCTAC)
# output highest

# input GET /class?item= TAAGATCCTTGGGTTCTAACCTGTTGCCT (site TAAGATCCTAG)
# output highest

* * *

ASSAY_DETAILS: recombinant barcode read abundance after kanamycin selection (control-corrected) (log10(CPM+1)); higher = more efficient recombination; sequences stand for … in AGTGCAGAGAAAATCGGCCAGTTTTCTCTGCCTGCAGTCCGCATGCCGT…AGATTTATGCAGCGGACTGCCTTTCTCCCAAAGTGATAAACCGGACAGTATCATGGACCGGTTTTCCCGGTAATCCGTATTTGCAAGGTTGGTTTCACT; site = the 11-nt target
Parameter recombinant barcode read abundance (log10): see the listing below.
Respond numerically, and do not add a unit to the figure.

Take a look at these entries with their results.
CGGGCCTCTTGGGTTCTAACCTGTTGCAC (site CGGTCCTCTGC); 0.209
TCTAAACCTTGGGTTCTAACCTGTTGCCT (site TCTCAACCTAG); 0.0726
ATAAATCCTTGGGTTCTAACCTGTTGCCT (site TTAAATCCTAG); 0.0804
TATGTAGCTTGGGTTCTAACCTGTTGCCA (site TATGTAGCTGG); 0.201
CGAGATCCTTGGGTTCTAACCTGTTGCCT (site CGAGATCCTAG); 0.678
GTATACCCTTGGGTTCTAACCTGTTGCAT (site GTATACCCTAT); 2.34

Looking up TACCCTTCTTGGGTTCTAACCTGTTGCGT (site CCTAAGCCTCA) , I found its recombinant barcode read abundance (log10) recorded as 0.0691

Looking up TTGGACACTTGGGTTCTAACCTGTTGCCT (site TTGGACACTAG) , I found its recombinant barcode read abundance (log10) recorded as 2.33

Looking up CTACGCTCTTGGGTTCTAACCTGTTGCAC (site CTACGTTCTGT) , I found its recombinant barcode read abundance (log10) recorded as 0.0706

Looking up AGGTCCTCTTGGGTTCTAACCTGTTGCAT (site AGGTCCTCTAA) , I found its recombinant barcode read abundance (log10) recorded as 0.282

* * *

ASSAY_DETAILS: recombinant barcode read abundance after kanamycin selection (control-corrected) (log10(CPM+1)); higher = more efficient recombination; sequences stand for … in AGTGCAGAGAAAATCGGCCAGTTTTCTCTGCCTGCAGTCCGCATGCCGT…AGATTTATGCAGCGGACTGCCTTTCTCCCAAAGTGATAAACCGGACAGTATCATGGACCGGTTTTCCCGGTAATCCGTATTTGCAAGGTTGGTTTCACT; site = the 11-nt target
Parameter recombinant barcode read abundance (log10): see the listing below.
Respond numerically, and do not add a unit to the figure.

Take a look at these entries with their results.
AAGGCCTCTTGGGTTCTAACCTGTTGCTT (site AAGGCCTCTAA); 2.74
AGCCTGACTTGGGTTCTAACCTGTTGCCT (site AGCCTGACTAG); 0.741
AAGGTCGCTTGGGTTCTAACCTGTTGCCT (site AAGGACGCTAG); 0.33
TTATGAGCTTGGGTTCTAACCTGTTGCCG (site TTATGAGCTCG); 1.2

Looking up GAGCGAGCTTGGGTTCTAACCTGTTGCAT (site GAGTGAGCTAT) , I found its recombinant barcode read abundance (log10) recorded as 0.735
